- study.target: Urokinase-type plasminogen activator (Homo sapiens)
value.kind: pIC50
Numbers only, as −log10 of the molar value.

Query string: Enter reported pIC50 observed with Urokinase-type plasminogen activator (Homo sapiens) for Nc1nc2cc(O)ccc2[nH]1
Result string: 3.70

====

- study.target: RAC-alpha serine/threonine-protein kinase (Homo sapiens)
- Sequence (P31749 whole entry): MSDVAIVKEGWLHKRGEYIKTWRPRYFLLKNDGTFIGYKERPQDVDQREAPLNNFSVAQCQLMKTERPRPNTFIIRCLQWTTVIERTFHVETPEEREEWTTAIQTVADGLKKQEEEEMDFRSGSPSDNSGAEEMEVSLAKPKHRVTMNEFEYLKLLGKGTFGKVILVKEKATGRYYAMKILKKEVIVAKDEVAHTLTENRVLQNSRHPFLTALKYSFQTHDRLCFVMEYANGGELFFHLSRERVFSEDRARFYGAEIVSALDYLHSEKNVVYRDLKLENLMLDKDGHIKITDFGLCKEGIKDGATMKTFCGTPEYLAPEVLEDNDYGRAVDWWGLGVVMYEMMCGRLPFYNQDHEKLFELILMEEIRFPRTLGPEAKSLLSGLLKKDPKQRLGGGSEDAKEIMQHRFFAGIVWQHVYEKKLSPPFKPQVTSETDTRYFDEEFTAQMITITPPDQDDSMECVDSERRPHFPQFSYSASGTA
value.kind: pIC50
One number for each entry, as −log10 of the molar value.

Query string: Give the measured pIC50 of c1ccc(-c2cn[nH]c2)cc1 .
Result string: 3.87

====

- protocol.details: Inhibition of PDE4
value.kind: IC50 (nM)
Numbers only, in nM.

Query string: What measured IC50 goes with CCOC(=O)c1c(C)nn(-c2ccccc2Cl)c1C ?
Result string: 19
